Consider the following compounds; for each one, report its clearance.
# TEST PROTOCOL: Clearance in C57BL/6 mouse at 1 mg/kg, iv measured after 24 hrs by LC-MS/MS analysis
# Type: ADME, organism-based
# CONDITION INFO: in vivo
Respond with the figure and its unit, in that order.

Would you kindly share the measured clearance for CN1CCC[C@@H](NC(=O)Cn2nc(C(C)(C)O)n3c(cc4sc(Cl)cc43)c2=O)C1 ?
58 mL/min/kg

Then this compound: CC(C)c1nn(CC(=O)N[C@@H]2CCCNC2)c(=O)c2cc3sc(Cl)cc3n12
55.7 mL/min/kg

Another compound to check: CC(C)c1nn(CC(=O)Nc2cccnc2)c(=O)c2cc3sc(Cl)cc3n12
16.5 mL/min/kg

// query: CC(C)c1nn(CC(=O)N[C@@H]2CCCN(C)C2)c(=O)c2cc3sc(Cl)cc3n12
58 mL/min/kg
